# TGT: Gardos channel of erythrocytes (Homo sapiens, UniProt O15554)
# ASSAY_TEXT: cell-based
# EXPERIMENTAL_SETUP: erythrocytes; read-out: Gardos Channel IC50
pIC50: −log10 of the molar value.
TEST_READOUT: pIC50

chem_smiles=COC(=O)CC(c1ccccc1)(c1ccccc1)c1ccccc1 assay_value=7.00
chem_smiles=CCC(c1ccccc1)(c1ccccc1)c1ccc(O)cc1 assay_value=6.37
chem_smiles=CCOC(=O)CNC(c1ccccc1)(c1ccccc1)c1ccccc1 assay_value=5.82
chem_smiles=NC(=O)CC(c1ccccc1)(c1ccccc1)c1ccccc1 assay_value=6.37
chem_smiles=CCOC(=O)C(C(=O)OCC)C(c1ccccc1)(c1ccccc1)c1ccccc1F assay_value=7.24
chem_smiles=N#CC(c1ccccc1)(c1ccccc1)C1CCCCC1 assay_value=5.21
chem_smiles=OC(c1ccccc1)(c1ccccc1)C1CCCCC1 assay_value=6.06
chem_smiles=O=CC(c1ccccc1)(c1ccccc1)c1ccccc1Cl assay_value=7.01
chem_smiles=O=CC(c1ccccc1)(c1ccccc1)c1ccccc1 assay_value=7.06
